experimental_system: T1, 4H63-AA
T1 chain: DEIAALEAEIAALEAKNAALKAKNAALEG
test_summary: two-hybrid library CCmax;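 further: natural log of median RNA to DNA barcode read ratio; higher means stronger binding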
cond: mean of both orientations
experimental_readout: interaction score

DKIAALKAENAALEAKIAALEAKNAALKG [4H2728-AA]	-0.35
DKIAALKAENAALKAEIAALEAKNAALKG [4H2760-AA]	-1.64
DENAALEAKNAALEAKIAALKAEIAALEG [4H1449-AA]	-1.09
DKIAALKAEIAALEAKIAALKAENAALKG [4H2604-AA]	-1.37
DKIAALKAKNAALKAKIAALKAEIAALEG [4H3049-AA]	-1.15
DEIAALEAKIAALKAEIAALEAENAALKG [4H324-AA]	-0.0237
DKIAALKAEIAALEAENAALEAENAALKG [4H2580-AA]	0.964
